# assay_remarks: in vivo
# measurement_parameters: dog, iv
Where a name gives a salt, the structure may show the parent alone.
metric: LD50 (mg/kg)
State just the number; it will be interpreted in mg/kg.

In: Tell me the measured LD50 of COC(=O)C1=C(C)NC(C)=C(C(=O)OCCN(C)Cc2ccccc2)C1c1cccc([N+](=O)[O-])c1 (stereo not shown) [Example 2, hydrochloride] , please.
Out: 6.1

====

# solubility listing for each entry below
# assay_remarks: Solubility in water at 25° C
# Type: physicochemical
# measurement_parameters: compounds of the present invention, 25° C, at the given pH, read-out: Solubility
Counter-ions that a name gives are not always drawn.
State just the number; it will be interpreted in µg/mL.

Example results:
CC1=C(C(=O)OCCN(C)Cc2ccccc2)C(c2cccc([N+](=O)[O-])c2)C(C(=O)OC(C)C)=C(C)N1 (stereo not shown) [Example 1, hydrochloride] :: 3100
CCOC(=O)C1=C(C)NC(C)=C(C(=O)OCCN(C)Cc2ccccc2)C1c1cccc([N+](=O)[O-])c1 (stereo not shown) :: 2900
COc1ccc(CN(C)CCOC(=O)C2=C(C)NC(C)=C(C(=O)OCCN(C)Cc3ccc(OC)cc3)C2c2cccc([N+](=O)[O-])c2)cc1 [Example 16, dihydrochloride] :: 25300
COC(=O)C1=C(C)NC(C)=C(C(=O)OCCN(C)Cc2ccccc2)C1c1ccccc1C(F)(F)F (stereo not shown) [Example 24, hydrochloride] :: 2300
CCOC(=O)C1=C(C)NC(C)=C(C(=O)OCCN(C)Cc2ccc(OC)cc2)C1c1cccc([N+](=O)[O-])c1 (stereo not shown) :: 1000

In: Tell me the measured solubility of COC(=O)C1=C(C)NC(C)=C(C(=O)OCCN(C)Cc2ccccc2)C1c1cccc([N+](=O)[O-])c1 (stereo not shown) [Example 2, hydrochloride] , please.
Out: 4900

In: # repeat for CC1=C(C(=O)OCCN(C)Cc2ccccc2)C(c2ccccc2[N+](=O)[O-])C(C(=O)OC(C)C)=C(C)N1 (stereo not shown)
Out: 3200
